All values here come from PubChem BioAssay.

Biological target: Nuclear receptor coactivator 3 (Homo sapiens) (UniProt Q9Y6Q9)
Sequence (Q9Y6Q9 whole entry, looked up): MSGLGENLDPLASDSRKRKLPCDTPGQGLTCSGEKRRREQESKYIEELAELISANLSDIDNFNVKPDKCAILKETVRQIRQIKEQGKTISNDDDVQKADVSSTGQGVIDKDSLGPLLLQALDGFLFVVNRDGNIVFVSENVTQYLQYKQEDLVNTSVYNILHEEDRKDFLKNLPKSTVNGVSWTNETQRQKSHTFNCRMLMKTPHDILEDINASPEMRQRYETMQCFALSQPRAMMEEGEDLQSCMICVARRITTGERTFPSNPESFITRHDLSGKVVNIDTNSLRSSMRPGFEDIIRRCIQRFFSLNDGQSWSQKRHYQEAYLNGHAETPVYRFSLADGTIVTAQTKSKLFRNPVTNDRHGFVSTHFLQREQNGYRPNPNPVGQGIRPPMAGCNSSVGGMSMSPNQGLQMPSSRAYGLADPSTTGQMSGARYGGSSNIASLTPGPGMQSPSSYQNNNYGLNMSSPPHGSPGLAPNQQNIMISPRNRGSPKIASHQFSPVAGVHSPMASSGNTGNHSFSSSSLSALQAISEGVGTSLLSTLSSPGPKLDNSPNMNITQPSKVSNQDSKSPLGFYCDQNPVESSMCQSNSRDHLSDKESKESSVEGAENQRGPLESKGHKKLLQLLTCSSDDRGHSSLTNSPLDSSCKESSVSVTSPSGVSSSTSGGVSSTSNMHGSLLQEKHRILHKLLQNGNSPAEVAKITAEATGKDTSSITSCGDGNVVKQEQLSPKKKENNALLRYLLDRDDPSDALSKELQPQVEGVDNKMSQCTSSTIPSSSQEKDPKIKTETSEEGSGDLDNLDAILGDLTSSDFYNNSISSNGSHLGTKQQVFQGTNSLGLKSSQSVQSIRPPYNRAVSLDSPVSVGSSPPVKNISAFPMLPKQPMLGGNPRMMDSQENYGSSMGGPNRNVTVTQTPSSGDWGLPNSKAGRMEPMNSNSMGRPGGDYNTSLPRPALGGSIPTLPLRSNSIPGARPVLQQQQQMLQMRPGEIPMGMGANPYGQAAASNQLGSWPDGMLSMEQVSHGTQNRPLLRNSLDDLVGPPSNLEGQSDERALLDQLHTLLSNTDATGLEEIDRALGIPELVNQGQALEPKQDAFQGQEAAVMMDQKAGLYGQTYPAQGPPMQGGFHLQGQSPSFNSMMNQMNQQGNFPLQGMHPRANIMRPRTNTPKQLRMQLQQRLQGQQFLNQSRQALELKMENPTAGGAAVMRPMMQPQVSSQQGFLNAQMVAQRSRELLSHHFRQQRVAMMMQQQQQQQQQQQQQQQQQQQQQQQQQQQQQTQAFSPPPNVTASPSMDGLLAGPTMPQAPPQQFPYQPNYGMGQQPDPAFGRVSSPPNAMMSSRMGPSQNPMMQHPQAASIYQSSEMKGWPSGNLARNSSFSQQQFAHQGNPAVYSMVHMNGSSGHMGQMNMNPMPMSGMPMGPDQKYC
Assay: SRC3 coactivator transcriptional activity inhibitors, confirmation, cell-based, luminescence, quadruplicate (AID 588792);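 also: 0% = DMSO treated cells and 100% = gossypol at 36 µM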
Conditions: HEK293 GAL4-SRC3 luciferase reporter, at 3.6 µM
Calls of active or inactive are those of the source.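 The calls were made as follows: active = mean inhibition over 43.08%, the solvent-only control mean plus 3 SD; inactive = the rest.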
Choose one outcome from this list and give only that: label 1 (active), label 0 (inactive)

Prompt: Dear all, I need the recorded test outcome for CN=c1scc(-c2cccs2)n1/N=C/c1ccccc1O , thank you.
Response: label 1

Prompt: For this molecule, state the assay outcome: Cc1ccc(-c2csc(=Nc3cccnc3)n2CCCn2ccnc2)cc1C
Response: label 1

Prompt: Field: outcome | Entry: C=CC[n+]1c(-c2ccc(C)cc2)csc1Nc1ccc(NC(C)=O)cc1
Response: label 0

Prompt: Hi, do you know how C=CCSc1nsc(NC(=O)Nc2ccc(F)cc2)n1 came out in this test?
Response: label 0

Prompt: Any idea what this test logged for O=C1CCCCC1Sc1nnc(-c2ccc3c(c2)OCO3)o1 (configuration not stated) ?
Response: label 0

Prompt: Which outcome did this test record for the molecule COc1ccc(-c2csc3ncnc(NCCN4CCOCC4)c23)cc1 ?
Response: label 0

Prompt: Record request — test call for NC(=S)NNc1ccc(Cl)c(Cl)c1
Response: label 0

Prompt: Please share the test call associated with Cc1cc2[nH]c3c4ccccc4nc(C)c3c2cc1C .
Response: label 0

Prompt: Name the outcome recorded for Cc1ccc(C(=O)CN2C(=O)c3ccccc3S2(=O)=O)cc1 in the assay.
Response: label 0

Prompt: Kindly provide the recorded test outcome for the following molecule: OCCNc1c2ccccc2nc2ccccc12
Response: label 0

Prompt: Returns: the outcome recorded for COc1ccc(CNC(=O)c2ccc(Cl)c(S(=O)(=O)N3CCOCC3)c2)cc1OC in this assay.
Response: label 0

Prompt: Please let me know the test result on file for CC(C)(C)c1ccc(Oc2ccc(N)cn2)cc1 .
Response: label 0

Prompt: Assay outcome for O=C(NC(Nc1nc2ccc([N+](=O)[O-])cc2s1)(C(F)(F)F)C(F)(F)F)c1ccccc1 : what was it?
Response: label 1

Prompt: How did this test come out for CCCCCCCCCCCCCCCCCCNc1ccn(C2OC(COP(=O)(O)OCC3OC(n4cc(F)c(=O)[nH]c4=O)CC3O)C(O)C2O)c(=O)n1 (configuration not stated) ?
Response: label 1

Prompt: GET /call?item= COc1ccc(O)c(/C=N/NC(=S)Nc2cccc(S(=O)(=O)N(C)C)c2)c1 returns the recorded outcome of this test.
Response: label 0

Prompt: Recorded call for COc1ccc(C(=O)Nc2ccc(N3CCN(C(=O)c4ccccc4C)CC3)cc2)cc1 ?
Response: label 0

Prompt: Could you check what this test reported for COC(=O)c1ccc2c(c1)C(C)(C)C(/C=C/c1ccccc1O)=[N+]2C ?
Response: label 1

Prompt: Can you look up the reported call for CC(C)(O)C#Cc1ccc([C@@H]2C[C@H]3CN(c4ccccc4)C(=O)[C@]34CCCN24)s1 for me?
Response: label 0

Prompt: Call for entry CCN(CC)c1ccc(-n2c(C)c(C(C)=O)c(C(C)=O)c2C)cc1 :
Response: label 0

Prompt: What classification did CC(=O)Nc1nc(C)c(-c2csc(Nc3cccc([N+](=O)[O-])c3)n2)s1 end up with in this test?
Response: label 0

Prompt: Which outcome did this test record for the molecule O=C(NCc1cccs1)C1CCCN(C(=O)Nc2ccccc2)C1 (configuration not stated) ?
Response: label 0

Prompt: # lookup: test call for O=C1CC(=O)OC(c2ccc([N+](=O)[O-])cc2)O1
Response: label 0

Prompt: Any idea what this test logged for COc1cc(/C=N/NC(=Nc2ccc(C)cc2)c2nc3ccccc3s2)ccc1O ?
Response: label 0

Prompt: Record request — test call for COc1ccc(NC(=O)C2CCN(S(=O)(=O)c3ccc4c(c3)CC(C)N4C(C)=O)CC2)cc1OC (configuration not stated)
Response: label 0

Prompt: Dear colleague, could you share the recorded outcome for O=C(CCl)N(C1CCCC1)C1CCS(=O)(=O)C1 (configuration not stated) when you have a moment?
Response: label 1

Prompt: # fetch the recorded call for COc1ccc(/C=C/C(=O)Nc2ccccc2C(=O)O)cc1OC here
Response: label 0

Prompt: Entry CC(=NNC(=S)Nc1ccccc1Cl)c1ccccn1 : call = ?
Response: label 0

Prompt: Hi, sorry to bother you, what did the test record for S=C(NCCCc1cnc[nH]1)NCCCN(Cc1ccc(Cl)cc1)c1ccc(Br)cn1 ?
Response: label 1

Prompt: Which outcome was assigned to Clc1ccccc1C1=Nn2c(nnc2-c2ccncc2)SC1 in this test?
Response: label 1

Prompt: Called result for CC(=O)Nc1ccc(-c2csc(NC(=O)Nc3ccccc3)n2)cc1
Response: label 0

Prompt: Given Cc1cc(C(=O)COC(=O)c2ccccc2O)c(C)n1CC1CCCO1 (configuration not stated) , state the outcome it received in this test.
Response: label 1

Prompt: Please indicate how the test categorized C=CCn1c(SCC(=O)NC2CCCC2)nnc1-c1ccccn1 .
Response: label 0

Prompt: Record request — test call for COc1ccc(C(=O)Cn2nc(CNc3ccc(Br)cc3)[n+]3c2CCCCC3)cc1
Response: label 0

Prompt: I would be grateful if you could indicate the recorded call for CCc1nc(N)nc(N)c1-c1ccc(N(C)Cc2ccccc2)c([N+](=O)[O-])c1 .
Response: label 1

Prompt: Assay result, entry CCCCOC(=O)c1[nH]c2c(c1C)C(=O)CC(c1cc(OC)c(OC)c(OC)c1)C2 (configuration not stated) — outcome?
Response: label 0

Prompt: Assay outcome for CCCC(=O)NC(c1ccc(Cl)cc1)c1ccc2cccnc2c1O (configuration not stated) : what was it?
Response: label 0

Prompt: Would you mind telling me which call this test gave Cc1ccccc1OCCNC(=O)c1ccccc1Sc1ccccc1C#N ?
Response: label 0

Prompt: # fetch the recorded call for O=C(N/N=C(\c1ccccc1)c1ccccn1)c1ccccc1Cl here
Response: label 0

Prompt: Give the logged outcome of this assay for the following molecule: O=C(C1CCC(CNS(=O)(=O)c2cccs2)CC1)N1CCN(c2ccc(Cl)cc2)CC1 (configuration not stated)
Response: label 0

Prompt: Answer briefly: the call reported for C[C@H]1O[C@@H](O[C@H]2[C@@H](O)C[C@H](O[C@H]3[C@@H](O)C[C@H](O[C@H]4CC[C@@]5(C)[C@H](CC[C@@H]6[C@@H]5C[C@@H](O)[C@]5(C)[C@@H](C7=CC(=O)OC7)CC[C@]65O)C4)O[C@@H]3C)O[C@@H]2C)C[C@H](O)[C@@H]1O in this assay.
Response: label 1

Prompt: What classification did COc1ccc(C2OC(=O)CC2C(=O)NCc2ccc(F)cc2)cc1OC (configuration not stated) end up with in this test?
Response: label 0

Prompt: Call for entry CCN(CC)c1ccc(Nc2nc(N3CCOCC3)c3ccccc3n2)cc1 :
Response: label 0
